Experiment: ATG_DR4_LXR_CIS: Attagene CIS-FACTORIAL HepG2 Assay for human Liver X Receptor (LXR), DR4 submotif (AID 2282929)
Details: HepG2 Attagene DR4 cis-reporter, mRNA transcription; actives raise or lower the signal
Activity calls are given as the source filed them. How the source made its calls: active means hit-call score of the fitted dose curve at least 0.9, where 1 is the maximum; inactive means score below 0.9.

- Molecule: "CCC(C)N(C)C(=O)c1cc2ccccc2c(-c2ccccc2Cl)n1 (configuration not stated)"
  AC50: "31.8 µM (active)"
- Molecule: "Cc1ccc(C(C)(C)C)c(O)c1"
  AC50: "167 µM (active)"
- Molecule: "COC(=O)[C@H]1[C@H]2C[C@@H]3c4[nH]c5cc(OC)ccc5c4CCN3C[C@H]2C[C@@H](OC(=O)c2cc(OC)c(OC)c(OC)c2)[C@@H]1OC"
  AC50: "22.8 µM (active)"
- Molecule: "CC(=O)OC1CC(C)OC(C)O1 (configuration not stated)"
  AC50: "inactive"
- Molecule: "C#CC(O)C(CC)CCCC (configuration not stated)"
  AC50: "161 µM (active)"
- Molecule: "CC(COCC(C)OC(=O)c1ccccc1)OC(=O)c1ccccc1 (configuration not stated)"
  AC50: "inactive"
- Molecule: "CCc1nc(N)nc(N)c1-c1ccc(Cl)cc1"
  AC50: "inactive"
- Molecule: "O=C(O)CN(CC(=O)O)CC(=O)O"
  AC50: "inactive"
- Molecule: "CS(=O)(=O)c1ccc([C@@H](C[C@H]2CCC(=O)C2)C(=O)Nc2cnccn2)cc1Cl"
  AC50: "inactive"
- Molecule: "c1ccc2occc2c1"
  AC50: "inactive"
- Molecule: "O=C1OC(c2ccc(O)cc2)(c2ccc(O)cc2)c2ccccc21"
  AC50: "54.9 µM (active)"
- Molecule: "CCCCCCCCCCCCCCOS(=O)(=O)O"
  AC50: "inactive"
- Molecule: "NCCOCCOCCN"
  AC50: "inactive"
- Molecule: "CN(C)C(=O)NC1(c2ccccc2)CCN(CC[C@@]2(c3ccc(F)c(F)c3)CN(C(=O)c3ccccc3)CCO2)CC1"
  AC50: "inactive"
- Molecule: "NC(=Nc1ccccc1)Nc1ccccc1"
  AC50: "61.8 µM (active)"
- Molecule: "CSc1ccc(Oc2ccc(S(N)(=O)=O)cc2CN(C)C)cc1C"
  AC50: "inactive"
- Molecule: "CC(C)COC(=O)CCCCC(=O)OCC(C)C"
  AC50: "inactive"
